All values here come from patent US12590071B2.

Reported inhibition effects of CYP coenzyme activity, CYP2C19 values follow for various molecules
Target Entity: CYP2C19 (Homo sapiens, UniProt P33261)
Construct: human liver microsomes (0.25 mg/mL); from tissue; host or cells: human liver microsomes
Sequence (P33261 whole entry): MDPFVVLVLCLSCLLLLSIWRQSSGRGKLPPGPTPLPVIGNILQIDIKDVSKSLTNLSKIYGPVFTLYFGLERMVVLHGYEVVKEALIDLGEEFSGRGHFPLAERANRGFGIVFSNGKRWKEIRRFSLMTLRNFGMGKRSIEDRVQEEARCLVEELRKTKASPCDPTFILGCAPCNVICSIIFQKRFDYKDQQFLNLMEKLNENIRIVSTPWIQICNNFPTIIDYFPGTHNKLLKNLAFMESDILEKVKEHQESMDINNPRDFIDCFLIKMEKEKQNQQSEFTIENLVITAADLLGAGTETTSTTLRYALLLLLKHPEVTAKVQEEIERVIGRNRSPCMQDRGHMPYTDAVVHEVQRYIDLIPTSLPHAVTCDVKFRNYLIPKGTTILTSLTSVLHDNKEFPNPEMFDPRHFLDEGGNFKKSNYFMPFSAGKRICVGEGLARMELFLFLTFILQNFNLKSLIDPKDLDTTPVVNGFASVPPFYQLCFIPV
Assay Comment: Inhibition of CYP coenzyme activity in human liver microsomes
Type: in vitro ADME
Condition Notes: compound 10 PM (so in the source); human liver microsomes 0.25 mg/mL; substrate S-mephenytoin; 15 minutes
Protocol: 5 The inhibition effects of CYP coenzyme activity by the compounds prepared according to Examples 1 to 171 was confirmed. […] Metabolites of the substrate drugs were simultaneously analyzed to evaluate the drug metabolism inhibition ability. Metabolites of each CYP coenzyme indicator drug generated through the reaction were analyzed using the Shimadzu Nexera XR system and TSQ vantage (Thermo). […]
API doc: respond with a numeric literal and nothing else, no unit.

{"columns": ["Molecule", "Target Entity", "Observed Measurement"],
 "data": [
  ["N#CC(C#N)=NNc1ccc(-c2cnc3ccnn3c2)cc1 [Compound 50]", "CYP2C19 (Homo sapiens, UniProt P33261)", 83.8],
  ["Cc1ncc(-c2ccc(NN=C(C#N)C#N)cc2)s1 [Compound 11]", "CYP2C19 (Homo sapiens, UniProt P33261)", 83.4],
  ["Cn1cc2c(-c3ccc(NN=C(C#N)C#N)cc3)cccc2n1 [Compound 55]", "CYP2C19 (Homo sapiens, UniProt P33261)", 86],
  ["N#CC(C#N)=NNc1ccc2ncccc2c1 [Compound 67]", "CYP2C19 (Homo sapiens, UniProt P33261)", 93.1]
]}

May I ask what inhibition effects of CYP coenzyme activity, CYP2C19 has been recorded for Cc1cnc(C(=O)Nc2nc3ccc(NN=C(C#N)C#N)cc3s2)cn1 [Compound 93] ?
91.6

One more molecule: N#CC(C#N)=NNc1cnc2[nH]cc(Cl)c2c1 [Compound 83]
96.4

// repeat for N#CC(C#N)=NNc1ccc2scnc2c1 [Compound 61] and report
93.6

Then this molecule: N#CC(C#N)=NNc1ccc(-c2ncccn2)cc1 [Compound 1]
90.7

Next up: Cc1cnc(-c2ccc(NN=C(C#N)C#N)cc2)nc1 [Compound 4]
90.7

---

Target Entity: tau protein (Homo sapiens, UniProt P10636)
Sequence (P10636 2-441 isoform P10636-8 limits assumed): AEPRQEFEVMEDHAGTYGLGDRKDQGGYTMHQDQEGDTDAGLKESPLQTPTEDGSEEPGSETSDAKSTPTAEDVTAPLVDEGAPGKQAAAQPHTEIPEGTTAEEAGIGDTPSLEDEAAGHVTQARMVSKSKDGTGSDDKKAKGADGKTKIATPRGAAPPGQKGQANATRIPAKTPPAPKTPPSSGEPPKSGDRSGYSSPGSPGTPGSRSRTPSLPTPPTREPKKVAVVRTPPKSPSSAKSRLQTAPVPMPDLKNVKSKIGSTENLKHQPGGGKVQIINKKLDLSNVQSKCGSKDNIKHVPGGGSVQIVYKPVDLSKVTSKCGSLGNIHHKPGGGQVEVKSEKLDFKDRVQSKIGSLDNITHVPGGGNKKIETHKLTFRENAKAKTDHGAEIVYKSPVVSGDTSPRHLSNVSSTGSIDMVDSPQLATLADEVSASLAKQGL
Assay Comment: Tau protein aggregation inhibition in tau-BiFC cell model
Condition Notes: tau-BiFC cells treated together with Forskolin, 48 hours
Hi! Could you tag entries with IC50 below 200 nM as rule met, and those at or above as rule not met? Much appreciated.

{"columns": ["Compound", "Group"],
 "data": [
  ["Cc1n[nH]c2cc(NN=C(C#N)C#N)ccc12 [Compound 73]", "rule not met"],
  ["N#CC(C#N)=NNc1ccc(-c2ncccn2)c(F)c1 [Compound 39]", "rule not met"],
  ["COc1cc(-c2ncccn2)ccc1NN=C(C#N)C#N [Compound 43]", "rule not met"]
]}

// next entry
Is 200 nM strictly greater than the compound's reported IC50? compound: N#CC(C#N)=NNc1ccc2ncccc2c1 [Compound 67]
rule met

---

Target Entity: tau protein (Homo sapiens)
Assay Comment: Tau protein aggregation inhibition in tau-BiFC cell model
Condition Notes: tau-BiFC cells treated together with Forskolin, 48 hours
Readout Type: IC50 (µM)
Respond with the bare value in µM.

{"columns": ["Structure Smiles String", "Observed Measurement"],
 "data": [
  ["N#CC(C#N)=NNc1ccc2nc(NC(=O)c3cncnc3)sc2c1", 2.7],
  ["Cc1nc(-c2ccc(NN=C(C#N)C#N)cc2)ncc1F", 2.4],
  ["Cn1cc2ccc(NN=C(C#N)C#N)cc2n1", 0.072]
]}

Entry "N#CC(C#N)=NNc1cnc2ccccc2c1" has what IC50?
0.19

// next record "N#CC(C#N)=NNc1ccc(-c2ncc(F)cn2)cc1"
1.3

Item: "N#CC(C#N)=NNc1ccc2scnc2c1"
3.1
